tgt: T1, human TRBC2 (hTRBC2), construct BIM0445 (human, UniProt A0A5B9 1-129, limits assumed)
T1 construct: also called BIM0445 (hTRBC2)
assay summary: SPR (BIAcore T200), antibody captured via anti-human Fc
readout type: binding result

// below: answered binders
Any idea what binding result was measured for BKM0193 (single arm) (antibody, V domains shown, Single arm anti-TRBC1 construct with human Fc; also called G29A T31A) VH: QVQLVQSGAEVKKPGSSVKVSCKASGYTFTGYVMHWVRQAPGQGLEWMGFIIPIFGTANYAQKFQGRVTITSDKSTTTAYMELSSLRSEDTAVYYCARGAGYNFDGAYRFFDFWGQGTLVTVSS VL: DVVMTQSPLSLPVTLGQPASISCRSSQRLVHSNANAYLHWYQQRPGQSPRLLIYRVSNRFPGVPDRFSGSGSGTDFTLKISRVEAEDVGVYFCSQSTHVPYTFGGGTKVEIK ?
no binding

What does the data say about its binding result? Entry: BIM0460 (bivalent) (antibody, V domains shown, Bivalent construct with a human Fc (captured via anti-human Fc antibody)) VH: QVQLVQSGAEVKKPGSSVKVSCKASGYTFTGYVMHWVRQAPGQGLEWMGFINPYNDDIQSNERFRGRVTITSDKSTTTAYMELSSLRSEDTAVYYCARGAGYNFDGAYRFFDFWGQGTLVTVSS VL: DVVMTQSPLSLPVTLGQPASISCRSSQRLVHSNGNTYLHWYQQRPGQSPRLLIYRVSNRFPGVPDRFSGSGSGTDFTLKISRVEAEDVGVYFCSQSTHVPYTFGGGTKVEIK
no binding

Please look up its binding result: BKM0191 (single arm) (antibody, V domains shown, Single arm anti-TRBC1 construct with human Fc; also called G29A) VH: QVQLVQSGAEVKKPGSSVKVSCKASGYTFTGYVMHWVRQAPGQGLEWMGFIIPIFGTANYAQKFQGRVTITSDKSTTTAYMELSSLRSEDTAVYYCARGAGYNFDGAYRFFDFWGQGTLVTVSS VL: DVVMTQSPLSLPVTLGQPASISCRSSQRLVHSNANTYLHWYQQRPGQSPRLLIYRVSNRFPGVPDRFSGSGSGTDFTLKISRVEAEDVGVYFCSQSTHVPYTFGGGTKVEIK
no binding

What does the data say about its binding result? Entry: BKM0195 (single arm) (antibody, V domains shown, Single arm anti-TRBC1 construct with human Fc; also called N30S) VH: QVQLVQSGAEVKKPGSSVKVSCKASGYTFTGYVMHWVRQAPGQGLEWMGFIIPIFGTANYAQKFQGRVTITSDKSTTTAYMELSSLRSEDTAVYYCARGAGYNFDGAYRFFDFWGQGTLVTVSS VL: DVVMTQSPLSLPVTLGQPASISCRSSQRLVHSNGSTYLHWYQQRPGQSPRLLIYRVSNRFPGVPDRFSGSGSGTDFTLKISRVEAEDVGVYFCSQSTHVPYTFGGGTKVEIK
no binding

From here, focus on the item given below.
Bench note: what binding result did BKM0192 (single arm) (antibody, V domains shown, Single arm anti-TRBC1 construct with human Fc; also called T31A) VH: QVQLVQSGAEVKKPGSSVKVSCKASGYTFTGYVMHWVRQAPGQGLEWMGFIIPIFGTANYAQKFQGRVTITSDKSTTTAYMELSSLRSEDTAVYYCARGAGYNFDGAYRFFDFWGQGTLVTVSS VL: DVVMTQSPLSLPVTLGQPASISCRSSQRLVHSNGNAYLHWYQQRPGQSPRLLIYRVSNRFPGVPDRFSGSGSGTDFTLKISRVEAEDVGVYFCSQSTHVPYTFGGGTKVEIK show?
no binding
